tested on: IM-9 (Non-Cancerous); test: combination Emax (second highest fraction inhibited in the dose matrix, 72 h); higher = more inhibition; extreme values may be limits of the assay
Readout Kind: combination Emax

[[record]]
molecule = "COc1cc2c(cc1OCCCCCOc1cc3c(cc1OC)C(=O)N1C=C(C)C[C@H]1C=N3)N=C[C@@H]1CC(C)=CN1C2=O [SG3199] + O=C(c1cc(Cc2n[nH]c(=O)c3ccccc23)ccc1F)N1CCN(C(=O)C2CC2)CC1 [Olaparib] (first compound max 0.001 µM, 7x7, partner max 10 µM)"
readout_kind = "combination Emax"
recorded_result = 0.38

[[record]]
molecule = "CN(CCO)CC[C@H](CSc1ccccc1)Nc1ccc(S(=O)(=O)NC(=O)c2ccc(N3CCC([C@@H](O)c4ccccc4-c4ccc(Cl)cc4)CC3)cc2)cc1S(=O)(=O)C(F)(F)F [AZD4320] + CS(=O)(=O)CCNCc1ccc(-c2ccc3ncnc(Nc4ccc(OCc5cccc(F)c5)c(Cl)c4)c3c2)o1 [Lapatinib] (first compound max 1 µM, 7x7, partner max 10 µM)"
readout_kind = "combination Emax"
recorded_result = 0.974

[[record]]
molecule = "Cc1c2c(nn1C)CSCc1cc(n(C)n1)CSc1cc(c3ccccc3c1)OCCCc1c(C(=O)O)n(C)c3c-2c(Cl)ccc13 [AZD5991] + CS(=O)(=O)CCNCc1ccc(-c2ccc3ncnc(Nc4ccc(OCc5cccc(F)c5)c(Cl)c4)c3c2)o1 [Lapatinib] (first compound max 1 µM, 7x7, partner max 10 µM)"
readout_kind = "combination Emax"
recorded_result = 0.93

[[record]]
molecule = "CCN(CCO)CCCOc1ccc2c(Nc3cc(CC(=O)Nc4cccc(F)c4)[nH]n3)ncnc2c1 [AZD2811] + C[C@@H]1COCCN1C2=NC(=NC(=C2)C3(CC3)[S@](=N)(=O)C)C4=C5C=CNC5=NC=C4 [AZD6738] (first compound max 1 µM, 7x7, partner max 10 µM)"
readout_kind = "combination Emax"
recorded_result = 0.981

[[record]]
molecule = "Cc1cc2ncnn2cc1Nc1ncc2c(n1)n(C1CCOCC1)c(=O)n2C [AZD7648] + CCN(CCO)CCCOc1ccc2c(Nc3cc(CC(=O)Nc4cccc(F)c4)[nH]n3)ncnc2c1 [AZD2811] (first compound max 10 µM, 7x7, partner max 1 µM)"
readout_kind = "combination Emax"
recorded_result = 0.943

[[record]]
molecule = "COc1nnc2ccc(N3CCC(c4ccc(OCCN5CCN(C)C(=O)[C@H]5C)cc4)CC3)nn12 [AZD5153] + Cc1c2c(nn1C)CSCc1cc(n(C)n1)CSc1cc(c3ccccc3c1)OCCCc1c(C(=O)O)n(C)c3c-2c(Cl)ccc13 [AZD5991] (first compound max 1 µM, 7x7, partner max 1 µM)"
readout_kind = "combination Emax"
recorded_result = 0.886

[[record]]
molecule = "C[C@@H](Nc1cc(F)cc(F)c1)c1cc(C(=O)N(C)C)cc2c(=O)cc(N3CCOCC3)oc12 [AZD8186] + CC(=O)c1c(C)c2cnc(Nc3ccc(N4CCNCC4)cn3)nc2n(C2CCCC2)c1=O [Palbociclib] (first compound max 10 µM, 7x7, partner max 10 µM)"
readout_kind = "combination Emax"
recorded_result = 0.682


---

system: NCI-H441 (Lung Adenocarcinoma); assay: combination Emax (second highest fraction inhibited in the dose matrix, 72 h); higher = more inhibition; extreme values may be limits of the assay
Readout Kind: combination Emax

[[record]]
compound = "NC1(C(=O)N[C@@H](CCO)c2ccc(Cl)cc2)CCN(c2ncnc3[nH]ccc23)CC1 [Capivasertib] + C[C@@H]1COCCN1C2=NC(=NC(=C2)C3(CC3)[S@](=N)(=O)C)C4=C5C=CNC5=NC=C4 [AZD6738] (first compound max 10 µM, 7x7, partner max 10 µM)"
recorded_result = 0.448

[[record]]
compound = "C[C@@H](Nc1cc(F)cc(F)c1)c1cc(C(=O)N(C)C)cc2c(=O)cc(N3CCOCC3)oc12 [AZD8186] + CC(=O)c1c(C)c2cnc(Nc3ccc(N4CCNCC4)cn3)nc2n(C2CCCC2)c1=O [Palbociclib] (first compound max 10 µM, 7x7, partner max 10 µM)"
recorded_result = 0.447


---

test system: NCI-H1703 (Squamous Cell Lung Carcinoma); test: combination Emax (second highest fraction inhibited in the dose matrix, 72 h); higher = more inhibition; extreme values may be limits of the assay
Readout Kind: combination Emax

[[record]]
compound = "CN(CCO)CC[C@H](CSc1ccccc1)Nc1ccc(S(=O)(=O)NC(=O)c2ccc(N3CCC([C@@H](O)c4ccccc4-c4ccc(Cl)cc4)CC3)cc2)cc1S(=O)(=O)C(F)(F)F [AZD4320] + Cc1cc2ncnn2cc1Nc1ncc2c(n1)n(C1CCOCC1)c(=O)n2C [AZD7648] (first compound max 1 µM, 7x7, partner max 10 µM)"
recorded_result = 0.322

[[record]]
compound = "CC1(C)CCC(CN2CCN(c3ccc(C(=O)NS(=O)(=O)c4ccc(NCC5CCOCC5)c([N+](=O)[O-])c4)c(Oc4cnc5[nH]ccc5c4)c3)CC2)=C(c2ccc(Cl)cc2)C1 [Venetoclax] + C=CCn1c(=O)c2cnc(Nc3ccc(N4CCN(C)CC4)cc3)nc2n1-c1cccc(C(C)(C)O)n1 [AZD1775] (first compound max 1 µM, partner max 1 µM)"
recorded_result = 0.977


---

test system: EW-7 (Ewing's Sarcoma); experiment: Bliss excess, mean over the matrix (fraction); higher = more synergy;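 also: after 72 h of two-drug dosing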
Each entry below carries its recorded Bliss excess.
Readout Kind: Bliss excess

[[record]]
compound = "C[C@@H](Nc1cc(F)cc(F)c1)c1cc(C(=O)N(C)C)cc2c(=O)cc(N3CCOCC3)oc12 [AZD8186] + C1CN(CCC1(C(=O)N[C@@H](CCO)C2=CC=C(C=C2)Cl)N)C3=NC=NC4=C3C=CN4 [AZD5363] (first compound max 10 µM, 7x7, partner max 10 µM)"
recorded_result = -0.03

[[record]]
compound = "COc1cccc(OCCCN)c1-c1cc(Nc2cnc(C#N)cn2)n[nH]1 [Prexasertib] + CCc1c2c(nc3ccc(O)cc13)-c1cc3c(c(=O)n1C2)COC(=O)[C@]3(O)CC [SN-38] (first compound max 1 µM, 7x7, partner max 0.3 µM)"
recorded_result = -0.0713


---

test system: IM-9 (Non-Cancerous); test: combination Emax (second highest fraction inhibited in the dose matrix, 72 h); higher = more inhibition; extreme values may be limits of the assay
Each entry below carries its recorded combination Emax.
Readout Kind: combination Emax

[[record]]
molecule = "CS(=O)(=O)CCNCc1ccc(-c2ccc3ncnc(Nc4ccc(OCc5cccc(F)c5)c(Cl)c4)c3c2)o1 [Lapatinib] + Cn1cnc2c(F)c(Nc3ccc(Br)cc3Cl)c(C(=O)NOCCO)cc21 [Selumetinib] (first compound max 10 µM, 7x7, partner max 10 µM)"
recorded_result = 0.994

[[record]]
molecule = "CN(C)CCCOc1ccc(-c2ccc3ncc4c(c3c2)n(C2CCOCC2)c(=O)n4C)cn1 [AZD0156] + C=CCn1c(=O)c2cnc(Nc3ccc(N4CCN(C)CC4)cc3)nc2n1-c1cccc(C(C)(C)O)n1 [AZD1775] (first compound max 1 µM, partner max 1 µM)"
recorded_result = 0.986

[[record]]
molecule = "CCN(CCO)CCCOc1ccc2c(Nc3cc(CC(=O)Nc4cccc(F)c4)[nH]n3)ncnc2c1 [AZD2811] + C=CCn1c(=O)c2cnc(Nc3ccc(N4CCN(C)CC4)cc3)nc2n1-c1cccc(C(C)(C)O)n1 [AZD1775] (first compound max 1 µM, partner max 1 µM)"
recorded_result = 0.999

[[record]]
molecule = "Cc1nc(Nc2ncc(C(=O)Nc3c(C)cccc3Cl)s2)cc(N2CCN(CCO)CC2)n1 [Dasatinib] + CC(=O)Nc1cccc(-n2c(=O)n(C3CC3)c(=O)c3c(Nc4ccc(I)cc4F)n(C)c(=O)c(C)c32)c1 [Trametinib] (first compound max 2 µM, 7x7, partner max 1 µM)"
recorded_result = 0.876

[[record]]
molecule = "COc1nnc2ccc(N3CCC(c4ccc(OCCN5CCN(C)C(=O)[C@H]5C)cc4)CC3)nn12 [AZD5153] + CC1(C)CCC(CN2CCN(c3ccc(C(=O)NS(=O)(=O)c4ccc(NCC5CCOCC5)c([N+](=O)[O-])c4)c(Oc4cnc5[nH]ccc5c4)c3)CC2)=C(c2ccc(Cl)cc2)C1 [Venetoclax] (first compound max 1 µM, 7x7, partner max 1 µM)"
recorded_result = 0.859

[[record]]
molecule = "CCc1c2c(nc3ccc(O)cc13)-c1cc3c(c(=O)n1C2)COC(=O)[C@]3(O)CC [SN-38] + CN(C)CCCOc1ccc(-c2ccc3ncc4c(c3c2)n(C2CCOCC2)c(=O)n4C)cn1 [AZD0156] (first compound max 0.3 µM, 7x7, partner max 1 µM)"
recorded_result = 1

[[record]]
molecule = "Cc1cc2ncnn2cc1Nc1ncc2c(n1)n(C1CCOCC1)c(=O)n2C [AZD7648] + C[C@@H]1COCCN1C2=NC(=NC(=C2)C3(CC3)[S@](=N)(=O)C)C4=C5C=CNC5=NC=C4 [AZD6738] (first compound max 10 µM, 7x7, partner max 10 µM)"
recorded_result = 0.964

